Target: DN-III-NS antigen (produced by Fapon Biotech InC.) (dengue virus)
Assay: capture ELISA, antibody sample 9-fold dilution
Consider the following binders and their measured OD450 (ref. 630 nm) readings.

| BINDER | OD450 (ref. 630 nm), OD |
| --- | --- |
| anti-dengue virus NS1 3D5 monoclonal antibody (recombinant, expressed in CHO cells) (antibody, mouse IgG1, kappa, V domains shown) VH: EVQLQQSGTELVRPGALVKLSCKASGFNIKDYYVHWVKQRPRQGLEWIGWIDPNNGKTIYDPKFQDKASITSDTSTNTAYLQLRSLTSEDTAVYYCVTAYVRFVYWGQGTLVTVSA VL: QIVLTQSPAIMSAFPGERVTMTCSASTSVKYMYWHQQKPGSSPRLLIYETSNIASGVPVRFSGSGSGTSYSLTISRDEAMDAATYYCQQWSSYPRTFGGGTKLEIKR | 2.22 |
| Mutation 3 (antibody, V domains shown) VH: EVQLQQSGTELVRPGALVKLSCKASGFNIKLYYVHWVKQRPRQGLEWIGWIDPKNGKTLYDPKCQDKASITSDTSTNTAYLQLRSLTSEDTAVYYCVTAYVRFVYWGQGTLVTVSA VL: QIVLTQSPAIMSAFPGERVTMTCSASSSVVYMYWHQQKPGSSPRLLIYCTSNVASGLPVRFSGSGSGTSYSLTISRDEAMDAATYYCQQRSSTPRTFGGGTKLEIKR | 0.21 |
